As shown below, each of these compounds has a reported inhibition value.
Tested on: Leucine-rich repeat serine/threonine-protein kinase 2 (Homo sapiens), Q5S007 [G2019S]
Sequence (Q5S007 whole entry G2019S): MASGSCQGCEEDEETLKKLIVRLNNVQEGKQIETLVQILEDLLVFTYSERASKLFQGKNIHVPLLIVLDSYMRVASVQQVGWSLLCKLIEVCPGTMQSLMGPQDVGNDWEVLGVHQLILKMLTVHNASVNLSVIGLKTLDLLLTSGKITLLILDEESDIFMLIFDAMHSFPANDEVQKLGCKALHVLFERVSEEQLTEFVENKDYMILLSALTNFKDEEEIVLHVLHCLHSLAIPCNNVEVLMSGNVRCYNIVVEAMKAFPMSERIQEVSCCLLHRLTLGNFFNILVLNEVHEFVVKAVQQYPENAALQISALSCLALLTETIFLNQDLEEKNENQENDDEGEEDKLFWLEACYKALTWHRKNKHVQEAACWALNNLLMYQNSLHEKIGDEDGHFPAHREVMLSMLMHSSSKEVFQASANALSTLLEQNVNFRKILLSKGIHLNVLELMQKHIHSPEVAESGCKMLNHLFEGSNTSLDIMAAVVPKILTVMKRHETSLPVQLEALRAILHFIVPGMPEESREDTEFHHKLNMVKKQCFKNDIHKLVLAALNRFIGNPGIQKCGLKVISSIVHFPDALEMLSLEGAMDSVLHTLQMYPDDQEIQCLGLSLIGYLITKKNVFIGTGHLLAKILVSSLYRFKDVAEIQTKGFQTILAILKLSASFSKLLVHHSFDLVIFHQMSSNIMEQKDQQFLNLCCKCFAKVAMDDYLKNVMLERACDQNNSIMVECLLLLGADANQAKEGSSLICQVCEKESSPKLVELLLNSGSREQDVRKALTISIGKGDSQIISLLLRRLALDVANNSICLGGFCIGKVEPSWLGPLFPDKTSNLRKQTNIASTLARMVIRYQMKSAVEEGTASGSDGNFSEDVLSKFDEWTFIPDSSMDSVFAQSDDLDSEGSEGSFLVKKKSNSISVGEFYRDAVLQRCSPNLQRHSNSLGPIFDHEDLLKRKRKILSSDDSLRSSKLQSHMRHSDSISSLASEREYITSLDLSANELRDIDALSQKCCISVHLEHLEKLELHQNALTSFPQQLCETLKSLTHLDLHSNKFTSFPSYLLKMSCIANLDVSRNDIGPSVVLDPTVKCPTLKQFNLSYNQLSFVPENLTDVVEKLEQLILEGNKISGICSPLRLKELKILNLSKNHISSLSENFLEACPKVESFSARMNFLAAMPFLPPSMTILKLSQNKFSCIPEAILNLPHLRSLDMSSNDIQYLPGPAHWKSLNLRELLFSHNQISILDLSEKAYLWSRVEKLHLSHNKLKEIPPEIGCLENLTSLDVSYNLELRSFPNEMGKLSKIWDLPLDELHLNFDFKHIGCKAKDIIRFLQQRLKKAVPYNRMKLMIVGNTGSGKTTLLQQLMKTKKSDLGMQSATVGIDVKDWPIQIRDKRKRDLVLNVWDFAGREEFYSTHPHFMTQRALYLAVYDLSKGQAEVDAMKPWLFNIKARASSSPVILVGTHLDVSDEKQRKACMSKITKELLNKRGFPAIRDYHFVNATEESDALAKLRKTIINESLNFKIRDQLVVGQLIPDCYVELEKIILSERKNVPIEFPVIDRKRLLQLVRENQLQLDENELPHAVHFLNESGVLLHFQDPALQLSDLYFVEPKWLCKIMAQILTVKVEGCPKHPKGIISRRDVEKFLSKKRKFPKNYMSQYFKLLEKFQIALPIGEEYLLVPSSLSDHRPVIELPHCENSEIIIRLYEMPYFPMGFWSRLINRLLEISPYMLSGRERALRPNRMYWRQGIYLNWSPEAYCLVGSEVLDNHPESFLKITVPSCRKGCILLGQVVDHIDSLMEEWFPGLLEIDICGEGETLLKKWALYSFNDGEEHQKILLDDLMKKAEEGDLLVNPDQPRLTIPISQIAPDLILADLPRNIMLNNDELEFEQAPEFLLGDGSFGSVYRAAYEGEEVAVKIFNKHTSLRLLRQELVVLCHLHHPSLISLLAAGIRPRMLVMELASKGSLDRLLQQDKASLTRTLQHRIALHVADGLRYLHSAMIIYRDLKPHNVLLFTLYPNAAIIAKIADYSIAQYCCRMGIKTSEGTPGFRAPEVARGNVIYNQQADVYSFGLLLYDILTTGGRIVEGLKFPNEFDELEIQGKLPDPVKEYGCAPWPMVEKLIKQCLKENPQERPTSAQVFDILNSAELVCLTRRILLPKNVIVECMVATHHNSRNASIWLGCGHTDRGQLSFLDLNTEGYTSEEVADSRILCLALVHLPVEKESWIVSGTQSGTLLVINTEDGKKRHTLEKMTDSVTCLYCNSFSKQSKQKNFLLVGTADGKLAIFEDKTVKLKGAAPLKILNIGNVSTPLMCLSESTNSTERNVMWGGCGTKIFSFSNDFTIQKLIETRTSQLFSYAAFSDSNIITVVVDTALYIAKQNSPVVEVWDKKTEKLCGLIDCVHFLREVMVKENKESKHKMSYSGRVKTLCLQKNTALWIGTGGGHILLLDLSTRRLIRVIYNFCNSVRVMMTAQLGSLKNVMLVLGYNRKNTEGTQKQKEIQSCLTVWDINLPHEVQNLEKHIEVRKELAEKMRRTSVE
Conditions: at 0.1 µM
I only need the number, in %, no unit after it.

Worked set:
CN(C)C(=O)O[C@@H]1CN[C@@H](C#Cc2cc3ncnc(Nc4ccc(OCc5cccc(F)c5)c(Cl)c4)c3s2)C1: 1.22
CS(=O)(=O)CCNCc1nc(-c2ccc3ncnc(Nc4ccc(OCc5cccc(C(F)(F)F)c5)cc4)c3c2)cs1: 3.12
[O-][S+]1CCN(Cc2ccc(-c3ccc4ncnc(Nc5ccc(OCc6ccccc6)c(Cl)c5)c4c3)o2)CC1: 4.21
Nc1nccc(-c2c(-c3ccc(F)cc3)nn3cc(C(F)(F)F)ccc23)n1: 6.54

The value of inhibition measured for the compound C[C@@H](Oc1cc(-n2cnc3ccc(OCC4CCN(C)CC4)cc32)sc1C(N)=O)c1ccccc1C(F)(F)F turned out to be 7.39

----------
Molecular target: Rho-associated protein kinase 2 (Homo sapiens)
Conditions: at 1 µM
Description: GSK_PKIS: ROCK2 mean inhibition at 1 uM [Nanosyn]
As shown below, each of these compounds has a reported inhibition value.
I only need the number, in %, no unit after it.

COc1cc2ncnc(Nc3ccc4c(cnn4Cc4ccccc4)c3)c2cc1OC: 7.05

The value of inhibition measured for the compound c1ccc(Nc2ncc(-c3ccccc3)o2)cc1 turned out to be 2.92

The value of inhibition measured for the compound C[C@@H](Oc1cc(-n2cnc3ccc(OCC4CCN(C)CC4)cc32)sc1C(N)=O)c1ccccc1C(F)(F)F turned out to be 12

The value of inhibition measured for the compound [O-][S+]1CCN(Cc2ccc(-c3ccc4ncnc(Nc5ccc(OCc6ccccc6)c(Cl)c5)c4c3)o2)CC1 turned out to be 0.91

The value of inhibition measured for the compound Cc1ccc2c(-c3ccnc(Nc4ccc5c(c4)OCCO5)n3)c(-c3ccc(C(F)(F)F)cc3)nn2n1 turned out to be 1.89

----------
Target: Protein kinase C alpha type (Homo sapiens);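 also: each value is the mean percent inhibition of PKC-alpha kinase activity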
Details: at 0.1 µM
ASSAY_ENDPOINT: inhibition (%)
I only need the number, in %, no unit after it.

Cc1cc(Cl)cc2c1NC(=O)C2=NNc1ccc(S(N)(=O)=O)cc1: 0.07
COC(=O)c1cncc(/C=C/c2c(C)cc(O)cc2C)c1: 0.98
Nc1ccc(C#Cc2cncnc2Nc2ccc(OCc3cccc(F)c3)c(Cl)c2)cc1: 0.42
COc1cc(Nc2nccc(-c3cnn4ncccc34)n2)cc(OC)c1: 12.4
Cc1ccc2c(-c3ccnc(Nc4cccc(C(F)(F)F)c4)n3)c(-c3ccccc3)nn2n1: 1.57

Log: Protein kinase C alpha type (Homo sapiens), compound COc1ccc(-c2nn3ncccc3c2-c2ccnc(Nc3cccc(C(F)(F)F)c3)n2)cc1 , inhibition = 0.27

Log: Protein kinase C alpha type (Homo sapiens), compound Cc1ccc(Nc2ccnc(Nc3cccc(C(N)=O)c3)n2)cc1O , inhibition = -1.9

Log: Protein kinase C alpha type (Homo sapiens), compound FC(F)(F)c1ccc(-c2nn3ncccc3c2-c2ccnc(Nc3ccc4c(c3)OCCO4)n2)cc1 , inhibition = 0.99

Log: Protein kinase C alpha type (Homo sapiens), compound N#Cc1c(NC(=O)c2ccccc2F)sc2c1CCCC2 , inhibition = -0.76

Log: Protein kinase C alpha type (Homo sapiens), compound CCS(=O)(=O)c1ccc(OC)c(Nc2ncc(-c3cccc(OC)c3)o2)c1 , inhibition = 1.39

Log: Protein kinase C alpha type (Homo sapiens), compound CS(=O)(=O)Nc1cccc(-c2ccc3c(NC(=O)C4CC4)n[nH]c3c2)c1 , inhibition = 0.79

Log: Protein kinase C alpha type (Homo sapiens), compound NS(=O)(=O)c1ccc(NC=C2C(=O)Nc3ccc4ncsc4c32)cc1 , inhibition = 1.14
